Target: CBL-B (Homo sapiens)
Construct: endogenous in cells; host or cells: Jurkat HiBit-IL2 reporter cells, C-CBL knocked out by CRISPR
Sequence (Q13191 whole entry): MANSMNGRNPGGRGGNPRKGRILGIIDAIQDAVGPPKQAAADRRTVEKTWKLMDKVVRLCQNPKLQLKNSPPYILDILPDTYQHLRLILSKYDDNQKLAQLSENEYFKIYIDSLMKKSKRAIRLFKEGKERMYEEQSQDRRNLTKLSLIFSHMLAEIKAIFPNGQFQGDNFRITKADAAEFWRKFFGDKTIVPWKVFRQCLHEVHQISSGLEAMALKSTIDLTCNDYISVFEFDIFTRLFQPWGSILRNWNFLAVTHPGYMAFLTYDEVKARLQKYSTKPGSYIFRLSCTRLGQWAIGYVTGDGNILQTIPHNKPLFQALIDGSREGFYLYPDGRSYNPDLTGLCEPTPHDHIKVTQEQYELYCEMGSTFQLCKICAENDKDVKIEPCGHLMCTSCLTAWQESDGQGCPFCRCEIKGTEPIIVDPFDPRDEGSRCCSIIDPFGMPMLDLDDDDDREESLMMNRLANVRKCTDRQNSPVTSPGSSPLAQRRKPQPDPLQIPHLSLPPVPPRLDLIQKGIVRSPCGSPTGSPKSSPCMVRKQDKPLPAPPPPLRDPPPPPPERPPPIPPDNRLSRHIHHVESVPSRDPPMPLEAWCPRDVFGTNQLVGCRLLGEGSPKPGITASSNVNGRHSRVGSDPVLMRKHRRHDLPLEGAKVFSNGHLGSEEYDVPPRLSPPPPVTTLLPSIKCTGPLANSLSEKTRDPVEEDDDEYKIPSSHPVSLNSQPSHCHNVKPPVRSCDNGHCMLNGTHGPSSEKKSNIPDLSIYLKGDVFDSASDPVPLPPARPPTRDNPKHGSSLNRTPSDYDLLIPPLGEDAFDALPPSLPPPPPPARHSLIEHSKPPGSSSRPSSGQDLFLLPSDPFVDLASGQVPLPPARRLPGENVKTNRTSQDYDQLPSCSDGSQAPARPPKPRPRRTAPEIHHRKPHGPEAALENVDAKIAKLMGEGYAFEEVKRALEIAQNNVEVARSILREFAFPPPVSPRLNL
Assay: Jurkat HiBit-IL2 assay (c-CBL KO), reporter cell line expressing CBL-B only
Format: cell-based
Conditions: C-CBL KO (expressing CBL-B only), geometric mean, Table 16b (further repetition), read-out: C-CBL KO EC50 (nM) GMean
measured-parameter: log10(EC50) (log10 of the value in nM)
In plain terms, each number is the log10 of measured EC50 in nM.

compound	log10(EC50)
CC(NC1CCC1)c1nc(C2CC2)cc2c(-c3cccc(C4(Cc5nncn5C)COC4)c3)n[nH]c12 (single isomer, unassigned) [Example H3]	2.36
C[C@@H](CO)N[C@H](C)c1nc(C(F)(F)F)cc2c(-c3cccc([C@H](c4nncn4C)C4CCC4)c3)n[nH]c12 (single isomer, unassigned) [Example D63]	2.08
C[C@@H](O)CN[C@H](C)c1nc(C(F)(F)F)cc2c(-c3cccc([C@H](c4nncn4C)C4CCC4)c3)n[nH]c12 (single isomer, unassigned) [Example D26]	1.48
C[C@H](O)CN[C@H](C)c1nc(C(F)(F)F)cc2c(-c3cccc([C@H](c4nncn4C)C4CCC4)c3)n[nH]c12 (single isomer, unassigned) [Example D18]	1.34

Can you look up the measured log10(EC50) of C[C@@H](N[C@H]1C[C@H](O)C1)c1nc(C(F)(F)F)cc2c(-c3cccc([C@H](c4nncn4C)C4CCC4)c3)n[nH]c12 (single isomer, unassigned) [Example C92] for me?
2.05

====

Molecular target: C-CBL (46-435) (Homo sapiens, UniProt P22681)
Construct: N-terminal biotinylated WT CBL-B (36-427) and C-CBL (46-435) were captured on a streptavidin (SA) coated sensor chip
Sequence (P22681 46-435): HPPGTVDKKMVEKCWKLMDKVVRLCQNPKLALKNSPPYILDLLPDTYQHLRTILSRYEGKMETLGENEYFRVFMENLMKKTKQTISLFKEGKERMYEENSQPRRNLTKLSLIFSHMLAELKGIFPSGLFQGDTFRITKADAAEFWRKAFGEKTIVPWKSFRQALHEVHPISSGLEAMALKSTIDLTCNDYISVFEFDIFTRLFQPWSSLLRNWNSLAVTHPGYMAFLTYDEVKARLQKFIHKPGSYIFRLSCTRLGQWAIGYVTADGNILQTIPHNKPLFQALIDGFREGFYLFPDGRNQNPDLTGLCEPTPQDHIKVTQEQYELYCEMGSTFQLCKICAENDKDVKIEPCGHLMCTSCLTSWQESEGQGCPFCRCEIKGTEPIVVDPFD
Test: Surface Plasmon Resonance (SPR) assay, binding affinity and kinetics, C-CBL
Conditions: SPR at 10° C., biotinylated C-CBL (46-435) on streptavidin chip; geometric mean; read-out: C-CBL SPR Kd (nM) GMean
Cut-off 60 nM on Kd: below means true, at or above means false.

Answered examples (4):
compound	target-or-test-system	answer-label
Cn1cnnc1CC1(c2cccc(-c3n[nH]c4c(CN5CCNC(=O)C5)nc(C(F)(F)F)cc34)c2)COC1 [Example C55]	C-CBL (46-435) (Homo sapiens, UniProt P22681)	true
Cn1cnnc1CC1(c2cccc(-c3n[nH]c4ccc(Cl)cc34)c2)COC1 [Example B7]	C-CBL (46-435) (Homo sapiens, UniProt P22681)	false
C[C@@H]1CN([C@H](C)c2nc(C(F)(F)F)cc3c(-c4cccc(C5(Cc6nncn6C)COC5)c4)n[nH]c23)CCO1 (single isomer, unassigned) [Example D50]	C-CBL (46-435) (Homo sapiens, UniProt P22681)	true
C[C@@H](c1nc(C(F)(F)F)cc2c(-c3cccc([C@H](c4nncn4C)C4CCC4)c3)n[nH]c12)N1CCNC(=O)C1 (single isomer, unassigned) [Example D88]	C-CBL (46-435) (Homo sapiens, UniProt P22681)	true

Read the next record carefully.
Lab log: compare recorded Kd with 60 nM; is it strictly lower for CC1CN(Cc2nc(C(F)(F)F)cc3c(-c4cccc(C5(Cc6nncn6C)COC5)c4)n[nH]c23)CCC1(F)F (single isomer, unassigned) [Example C31] ?
false
